All figures here come from patent US20050234225A1.

Molecular target: T1, KDR-alkaline phosphatase (AP) soluble fusion protein (human, UniProt P35968 20-764)
T1 construct: Expressed in NIH 3T3 cells as in Lu et al. 2000; also called KDR-AP; full length KDR-AP; not shown: alkaline phosphatase (AP) fusion partner
T1 sequence (P35968 20-764): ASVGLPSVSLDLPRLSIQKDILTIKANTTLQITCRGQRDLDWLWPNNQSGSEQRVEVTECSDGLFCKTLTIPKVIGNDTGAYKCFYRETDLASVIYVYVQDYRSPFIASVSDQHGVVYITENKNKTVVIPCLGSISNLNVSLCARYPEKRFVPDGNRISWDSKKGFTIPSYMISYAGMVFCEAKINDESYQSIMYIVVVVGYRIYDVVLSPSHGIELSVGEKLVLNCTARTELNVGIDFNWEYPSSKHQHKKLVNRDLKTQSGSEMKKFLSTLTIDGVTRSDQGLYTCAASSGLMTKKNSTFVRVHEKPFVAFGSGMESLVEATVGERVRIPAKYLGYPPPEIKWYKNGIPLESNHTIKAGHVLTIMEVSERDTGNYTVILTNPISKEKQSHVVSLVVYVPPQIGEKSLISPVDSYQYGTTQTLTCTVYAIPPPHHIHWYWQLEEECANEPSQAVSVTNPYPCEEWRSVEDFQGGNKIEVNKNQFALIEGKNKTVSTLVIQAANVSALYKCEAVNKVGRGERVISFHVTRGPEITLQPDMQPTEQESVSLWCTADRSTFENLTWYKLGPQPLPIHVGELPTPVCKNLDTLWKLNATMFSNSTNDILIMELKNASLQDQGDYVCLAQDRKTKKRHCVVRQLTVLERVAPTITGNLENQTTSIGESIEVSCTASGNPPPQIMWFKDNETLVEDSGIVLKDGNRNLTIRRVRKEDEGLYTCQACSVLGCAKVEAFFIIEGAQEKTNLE
Test: BIAcore SPR, KDR immobilized
assay_metric: kon (M⁻¹ s⁻¹)
Give bare numbers, in M⁻¹ s⁻¹.

Worked examples follow.
binder	reading
Hu-1121 Fab (Fab, V domains shown, see also CLM-00007) with new light chains) VH: EVQLVQSGGGLVKPGGSLRLSCAASGFTFSSYSMNWVRQAPGKGLEWVSSISSSSSYIYYADSVKGRFTISRDNAKNSLYLQMNSLRAEDTAVYYCARVTDAFDIWGQGTMVTVSS VL: DIQMTQSPSSVSASIGDRVTITCRASQGIDNWLGWYQQKPGKAPKLLIYDASNLDTGVPSRFSGSGSGTYFTLTISSLQAEDFAVYFCQQAKAFPPTFGGGTKVDIK	296000
IMC-2C6 IgG (antibody, V domains shown) VH: EVQLVQSGGGLVKPGGSLRLSCAASGFTFSSYSMNWVRQAPGKGLEWVSSISSSSSYIYYADSVKGRFTISRDNAKNSLYLQMNSLRAEDTAVYYCARVTDAFDIWGQGTMVTVSS VL: EIVMTQSPATLSLSPGERATLSCRASQSVSSYLAWYQQKPGQAPRLLIYDSSNRATGIPARFSGSGSGTDFTLTISSLEPEDFATYYCLQHNTFPPTFGQGTKVEIK	212000
IMC-1121 IgG (antibody, V domains shown) VH: EVQLVQSGGGLVKPGGSLRLSCAASGFTFSSYSMNWVRQAPGKGLEWVSSISSSSSYIYYADSVKGRFTISRDNAKNSLYLQMNSLRAEDTAVYYCARVTDAFDIWGQGTMVTVSS VL: DIQMTQSPSSVSASIGDRVTITCRASQGIDNWLGWYQQKPGKAPKLLIYDASNLDTGVPSRFSGSGSGTYFTLTISSLQAEDFAVYFCQQAKAFPPTFGGGTKVDIK	479000

Read the next record carefully.
Returns the measured kon for the input binder. Input: D2C6 Fab (Fab, V domains shown, Soluble human Fab from E. coli HB2151; also called Hu-2C6 Fab; Hu-2C6) VH: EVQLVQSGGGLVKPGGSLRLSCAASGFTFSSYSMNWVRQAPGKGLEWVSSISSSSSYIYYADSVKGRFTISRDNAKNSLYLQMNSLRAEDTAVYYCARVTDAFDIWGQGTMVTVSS VL: EIVMTQSPATLSLSPGERATLSCRASQSVSSYLAWYQQKPGQAPRLLIYDSSNRATGIPARFSGSGSGTDFTLTISSLEPEDFATYYCLQHNTFPPTFGQGTKVEIK
171000
